Documented % Phosphatase Activity (compared to DMSO) PRL-1 across a set of compounds
- systemUnderTest: recombinant PRL-1 (Homo sapiens, UniProt Q93096)
- Construct: 6xHis (N, cleaved yes); made in house; host or cells: E. coli One Shot BL21 Star
- protocolText: In vitro phosphatase assay (DiFMUP hydrolysis), PRL-1; note: test concentration or dose not given here
- Format: biochemical
- statedConditions: FDA-approved drug screen; activity compared to DMSO
Hi! Could you send only the number? It should be in %, unit omitted.

Some compounds with known % Phosphatase Activity (compared to DMSO) PRL-1 results, for comparison:
>>> print(df.to_string())
                                   compound  reportedmeasurement
0  CC1(C)O[C@@H]2[C@@H](CO[C@@]3(COS(N)(=O)=O)OC(C)(C)O[C@@H]23)O1 [Topiramate]                  118
1                c1ccc2[nH]c(-c3cscn3)nc2c1                   99
2  CCCCC(=O)N(Cc1ccc(-c2ccccc2-c2nnn[nH]2)cc1)[C@H](C(=O)O)C(C)C                   86
3  CC1(C)O[C@@H]2C[C@H]3[C@@H]4CCC5=CC(=O)C=C[C@]5(C)[C@@]4(F)[C@@H](O)C[C@]3(C)[C@]2(C(=O)CO)O1 [Triamcinolone Acetonide]                   99
4  Cc1cn([C@H]2C[C@H](N=[N+]=[N-])[C@@H](CO)O2)c(=O)[nH]c1=O                  100

Task item: Answer with the recorded % Phosphatase Activity (compared to DMSO) PRL-1 of Nc1ccn([C@H]2CC[C@@H](CO)O2)c(=O)n1 only.
Reply: 93

Task item: Answer with the recorded % Phosphatase Activity (compared to DMSO) PRL-1 of CC(S)C(=O)NCC(=O)O (stereo not shown) only.
Reply: 90

Task item: Answer with the recorded % Phosphatase Activity (compared to DMSO) PRL-1 of CCCc1nn(C)c2c(=O)[nH]c(-c3cc(S(=O)(=O)N4CCN(C)CC4)ccc3OCC)nc12.CS(=O)(=O)O [Sildenafil Mesylate] only.
Reply: 94

Task item: Answer with the recorded % Phosphatase Activity (compared to DMSO) PRL-1 of CCOc1ccccc1OCCN[C@H](C)Cc1ccc(OC)c(S(N)(=O)=O)c1 only.
Reply: 96

Task item: Answer with the recorded % Phosphatase Activity (compared to DMSO) PRL-1 of NC[C@H]1CC[C@H](C(=O)O)CC1 only.
Reply: 92

Task item: Answer with the recorded % Phosphatase Activity (compared to DMSO) PRL-1 of C/C(O)=C(\C#N)C(=O)Nc1ccc(C(F)(F)F)cc1 [Teriflunomide] only.
Reply: 95

Task item: Answer with the recorded % Phosphatase Activity (compared to DMSO) PRL-1 of CC(=O)S[C@@H]1CC2=CC(=O)CC[C@]2(C)[C@H]2CC[C@@]3(C)[C@@H](CC[C@@]34CCC(=O)O4)[C@H]12 only.
Reply: 84

Task item: Answer with the recorded % Phosphatase Activity (compared to DMSO) PRL-1 of CCS(=O)(=O)CCn1c([N+](=O)[O-])cnc1C only.
Reply: 107

* * *

- systemUnderTest: recombinant PRL-3 (Homo sapiens, UniProt O75365)
- Construct: 6xHis (N, cleaved yes); made in house; host or cells: E. coli One Shot BL21 Star
- Sequence (O75365 whole entry): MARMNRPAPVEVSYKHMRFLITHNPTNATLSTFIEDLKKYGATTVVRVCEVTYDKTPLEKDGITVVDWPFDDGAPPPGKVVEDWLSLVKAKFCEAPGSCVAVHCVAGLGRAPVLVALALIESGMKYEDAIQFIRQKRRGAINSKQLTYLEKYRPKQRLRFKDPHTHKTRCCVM
- protocolText: In vitro phosphatase assay (DiFMUP hydrolysis), PRL-3; note: test concentration or dose not given here
- Type: biochemical
- statedConditions: FDA-approved drug screen; compared to DMSO
reportedProperty: % Phosphatase Activity (compared to DMSO) PRL-3 (%)
Hi! Could you send only the number? It should be in %, unit omitted.

compound	reportedMeasurement
COc1cc(OC)c(C(=O)CCCN2CCCC2)c(OC)c1.Cl [Buflomedil HCl]	87

Task item: Answer with the recorded % Phosphatase Activity (compared to DMSO) PRL-3 of CC1=C(C(=O)O)N2C(=O)[C@@H](NC(=O)[C@H](N)c3ccccc3)[C@H]2SC1 [Cephalexin] only.
Reply: 98

* * *

- systemUnderTest: recombinant PRL-1 (Homo sapiens, UniProt Q93096)
- Construct: 6xHis (N, cleaved yes); made in house; host or cells: E. coli One Shot BL21 Star
- Sequence (Q93096 1-173): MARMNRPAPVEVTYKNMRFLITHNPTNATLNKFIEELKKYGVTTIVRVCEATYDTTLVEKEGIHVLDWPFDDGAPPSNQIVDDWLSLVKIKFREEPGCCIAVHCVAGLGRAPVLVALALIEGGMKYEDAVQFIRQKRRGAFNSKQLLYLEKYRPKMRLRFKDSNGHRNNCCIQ
- protocolText: In vitro phosphatase assay (DiFMUP hydrolysis), PRL-1; note: test concentration or dose not given here
- Assay type: biochemical
Structures can show the parent of a compound that is named as a salt.
reportedProperty: % Phosphatase Activity (compared to DMSO) PRL-1 (%)
Hi! Could you send only the number? It should be in %, unit omitted.

Some compounds with known % Phosphatase Activity (compared to DMSO) PRL-1 results, for comparison:
>>> df
                                   compound  reportedmeasurement
0  CN1CCC[C@H]1c1cccnc1.O=C(O)C(O)C(O)C(=O)O.O=C(O)C(O)C(O)C(=O)O [Nicotine Ditartrate]                   95
1          NCCc1ccc(O)c(O)c1 [Dopamine HCl]                  125
2  CCOc1ccc(Cc2cc([C@@H]3O[C@H](CO)[C@@H](O)[C@H](O)[C@H]3O)ccc2Cl)cc1                   98

Task item: Answer with the recorded % Phosphatase Activity (compared to DMSO) PRL-1 of CN1CCCCC1CCN1c2ccccc2Sc2ccc([S+](C)[O-])cc21 (stereo not drawn) [Mesoridazine Besylate] only.
Reply: 98

Task item: Answer with the recorded % Phosphatase Activity (compared to DMSO) PRL-1 of CNC[C@H](O)c1ccc(O)c(O)c1 [Epinephrine HCl] only.
Reply: 98

Task item: Answer with the recorded % Phosphatase Activity (compared to DMSO) PRL-1 of Nc1ccc(S(=O)(=O)Nc2ncccn2)cc1 only.
Reply: 105

Task item: Answer with the recorded % Phosphatase Activity (compared to DMSO) PRL-1 of OCCOc1ccc(/C(=C(/CCCl)c2ccccc2)c2ccccc2)cc1 only.
Reply: 96

Task item: Answer with the recorded % Phosphatase Activity (compared to DMSO) PRL-1 of C[C@]12CC[C@H]3[C@@H](CCC4=CC(=O)CC[C@@H]43)[C@@H]1CC[C@@H]2O only.
Reply: 93

* * *

- systemUnderTest: recombinant PRL-2 (Homo sapiens, UniProt Q12974)
- Construct: 6xHis (N, cleaved yes); made in house; host or cells: E. coli One Shot BL21 Star
- Sequence (Q12974 whole entry): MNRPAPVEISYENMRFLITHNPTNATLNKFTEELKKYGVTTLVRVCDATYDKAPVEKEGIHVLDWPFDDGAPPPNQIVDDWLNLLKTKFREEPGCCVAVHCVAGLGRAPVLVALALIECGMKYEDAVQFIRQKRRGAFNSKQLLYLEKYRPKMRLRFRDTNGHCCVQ
- protocolText: In vitro phosphatase assay (DiFMUP hydrolysis), PRL-2
- Format: biochemical
- statedConditions: FDA-approved drug screen; compared to DMSO
Counter-ions that a name gives are not always drawn.
reportedProperty: % Phosphatase Activity (compared to DMSO) PRL-2 (%)
Hi! Could you send only the number? It should be in %, unit omitted.

Some compounds with known % Phosphatase Activity (compared to DMSO) PRL-2 results, for comparison:
                                   compound  unitinfo  reportedmeasurement
0    O=c1[nH]cnc2c1ncn2[C@H]1CC[C@@H](CO)O1         %                  114
1  NC(=O)c1ncn([C@@H]2O[C@H](CO)[C@@H](O)[C@H]2O)c1N         %                  100
2  N=C(N)NC(=O)Cc1c(Cl)cccc1Cl [Guanfacine Hydrochloride]         %                   84
3  CC1COc2c(N3CCN(C)CC3)c(F)cc3c(=O)c(C(=O)O)cn1c23 (stereo not shown)         %                  271
4  CC(C)CN(C[C@@H](O)[C@H](Cc1ccccc1)NC(=O)O[C@H]1CCOC1)S(=O)(=O)c1ccc(N)cc1         %                   81

Task item: Answer with the recorded % Phosphatase Activity (compared to DMSO) PRL-2 of Cc1cc(Nc2ncc(Cl)c(Nc3ccccc3S(=O)(=O)C(C)C)n2)c(OC(C)C)cc1C1CCNCC1 only.
Reply: 92

Task item: Answer with the recorded % Phosphatase Activity (compared to DMSO) PRL-2 of C=C1/C(=C\C=C2/CCC[C@]3(C)[C@@H]([C@H](C)CCCC(C)C)CC[C@@H]23)C[C@@H](O)C[C@@H]1O only.
Reply: 82

* * *

- systemUnderTest: recombinant PRL-2 (Homo sapiens, UniProt Q12974)
- Construct: 6xHis (N, cleaved yes); made in house; host or cells: E. coli One Shot BL21 Star
- protocolText: In vitro phosphatase assay (DiFMUP hydrolysis), PRL-2;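 note: PRL-2 activity read as DiFMUP hydrolysis after 20 min at room temperature with drug, enzyme first pre-reduced at 4 °C for 20 min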
- Type: biochemical
- statedConditions: FDA-approved drug screen; compared to DMSO
Structures can show the parent of a compound that is named as a salt.
Documented % Phosphatase Activity (compared to DMSO) PRL-2 across a set of molecules
Hi! Could you send only the number? It should be in %, unit omitted.

molecule	reportedMeasurement
CC(=O)Oc1cc2c(s1)CCN(C(C(=O)C1CC1)c1ccccc1F)C2 (stereo not shown) [Prasugrel]	88
CCCC(=O)O[C@]1(C(=O)COC(C)=O)CC[C@H]2[C@@H]3C[C@H](F)C4=CC(=O)C=C[C@]4(C)[C@@]3(F)[C@@H](O)C[C@@]21C [Difluprednate]	76
N#C/C(=C1/SC[C@@H](c2ccc(Cl)cc2Cl)S1)n1ccnc1	90
CN(C)C(=O)COC(=O)Cc1ccc(OC(=O)c2ccc(NC(=N)N)cc2)cc1 [Camostat Mesilate]	138
CC[C@@H](CO)NCCN[C@@H](CC)CO [Ethambutol HCl]	111

Task item: Answer with the recorded % Phosphatase Activity (compared to DMSO) PRL-2 of NS(=O)(=O)c1cc2c(cc1Cl)NCNS2(=O)=O [Hydrochlorothiazide] only.
Reply: 122

Task item: Answer with the recorded % Phosphatase Activity (compared to DMSO) PRL-2 of O=c1ccc2ccc(OCCCCN3CCN(c4cccc5sccc45)CC3)cc2[nH]1 only.
Reply: 115

Task item: Answer with the recorded % Phosphatase Activity (compared to DMSO) PRL-2 of COCCOC(=O)C1=C(C)NC(C)=C(C(=O)OC/C=C/c2ccccc2)C1c1cccc([N+](=O)[O-])c1 (stereo not shown) only.
Reply: 95

Task item: Answer with the recorded % Phosphatase Activity (compared to DMSO) PRL-2 of COc1cc2c(Oc3ccc(NC(=O)C4(C(=O)Nc5ccc(F)cc5)CC4)cc3F)ccnc2cc1OCCCN1CCOCC1 only.
Reply: 105

Task item: Answer with the recorded % Phosphatase Activity (compared to DMSO) PRL-2 of COc1ccc(C(=O)c2ccccc2)c(O)c1 only.
Reply: 81

Reference source for all entries: paper PMC8119466
